Values were extracted from PubChem BioAssay.

Experiment: binders of probe aFGF2 on microarray, primary screen, stem cell growth factor project, biochemical, small-molecule microarray, fluorescence 635/667 (AID 1067);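 also: measures binding of biotinylated aFGF2 protein to printed compounds on slides; z-score merges feature fluorescence and signal-to-noise across triplicate slides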
Conditions: higher = more signal

| Smiles text | composite z-score |
| --- | --- |
| COCCOC(=O)N1C(=O)[C@@]2(c3cc(C#CCC(C(=O)OC)C(=O)OC)ccc31)[C@H](c1ccc(O)cc1)N1[C@H](c3ccccc3)[C@H](c3ccccc3)OC(=O)[C@H]1[C@@H]2C(=O)N1CCc2cc(OC)c(OC)cc2C1 | -0.0538 |
| C=C[C@@H](CO)NS(=O)(=O)c1ccc(Br)cc1 | -0.22 |
| CCCCC(=C=CC[C@@H](O)c1ccc(OCCO)cc1)CCO | -0.087 |
| CCCN1C(=O)[C@@]2(c3ccc([N+](=O)[O-])cc3)CC(=O)N(C3CCCCC3)[C@@H]2c2ccc(CO)cc21 | -0.0131 |
